# Tested on: SF-295
# assay name: NCI tumour cell line growth inhibition, 48 h
The source made the active and inactive calls. Cut-off read from the data, not from the text of the source: active = GI50 up to about 1.1 µM and inactive = higher.
Measured GI50, listed per entry.

Answered examples (2):
>>> observed_result("O=C(NCCCCNCCCNC(=O)C(F)(F)F)C(F)(F)F")
"32.6 µM (inactive)"
>>> observed_result("Nc1ccc2c(=O)cc(-c3cccs3)[nH]c2n1")
"3.1 µM (inactive)"

Notebook: `Cn1c2c(c3ccccc31)CCN(CCCCN1CCN(c3ccccc3)CC1)C2=O` , GI50 read as > 88.3 µM (inactive)

Notebook: `COc1cc(Nc2n[nH]c(NS(=O)(=O)c3cc(C)c(Cl)cc3S)n2)cc(OC)c1OC` , GI50 read as > 100 µM (inactive)

Notebook: `CSC1=Nc2ccccc2-c2nc3ccccc3cc2C1` , GI50 read as > 100 µM (inactive)

Notebook: O=C(O)NC(c1ccccc1)C(NC(=O)c1ccccc1)c1ccccc1 (stereo unspecified) , GI50 read as > 100 µM (inactive)

Notebook: CN1C(C)(C)CC(=O)C(Br)C1(C)C (stereo unspecified) , GI50 read as > 100 µM (inactive)

Notebook: `OC(c1ccccc1Br)(c1ccccc1Br)C(F)(F)F` , GI50 read as 21.1 µM (inactive)

Notebook: `O=C1Nc2ccccc2/C1=N/Nc1ccccc1Cl` , GI50 read as 32.1 µM (inactive)

Notebook: `O=C(Cn1c2ccc(Br)cc2c2nc3ccccc3nc21)NNC(=O)NC1CCCCC1` , GI50 read as 34.3 µM (inactive)

Notebook: NC12Oc3cc(O)cc(O)c3C1(c1ccc(Cl)cc1)c1c(O)cc(O)cc1O2 (stereo unspecified) , GI50 read as 96.8 µM (inactive)

----------
# System: NCI-H226
# assay name: NCI tumour cell line growth inhibition, 48 h
Active and inactive are the calls of the source. Rule as the data show it: active = GI50 up to about 1.1 µM and inactive = higher.
Measured GI50, listed per entry.

Answered examples (5):
>>> observed_result("CCCCCCCCCCCCCP(=O)(NCC(N)=O)OCC (stereo not drawn)")
"17.5 µM (inactive)"
>>> observed_result("C=C1C(=O)O[C@@H]2OC3(C)CCC4C(C)CCC1C42OO3 (stereo partly drawn)")
"11.5 µM (inactive)"
>>> observed_result("Cn1c(=O)n(C2(C)C[Se]C2)c2ccccc21")
"> 100 µM (inactive)"
>>> observed_result("CC(C)C(C/C=C1\\CC(CO)(COC(=O)c2ccccc2)OC1=O)C(C)C (stereo not drawn)")
"19.8 µM (inactive)"
>>> observed_result("CC(C)N(C(=O)C12C3C4C1C1C2C3C41C(=O)N(C(C)C)C(C)C)C(C)C (stereo not drawn)")
"> 50 µM (inactive)"

Notebook: CC(=O)OCC1OC(n2cc(F)c(=O)[nH]c2=O)C(OC(C)=O)C1OC(C)=O (stereo not drawn) , GI50 read as 59.8 µM (inactive)

Notebook: `CC(=O)CC(=O)NC=O` , GI50 read as > 100 µM (inactive)

Notebook: COC(=O)C(Cc1c[nH]c2ccccc12)NP(=O)(O)OCC1OC(n2cc(F)c(=O)[nH]c2=O)CC1O (stereo not drawn) , GI50 read as > 100 µM (inactive)

----------
# Test system: K562
# assay name: NCI tumour cell line growth inhibition, 48 h
Active and inactive are the calls of the source. No stated cut-off is given here; in the data, active = GI50 up to about 1.1 µM and inactive = higher.
A correct response names exactly one class from Yes (active), No (inactive)

[Q] Entry `C/C=C/[P+](c1ccccc1)(c1ccccc1)c1ccccc1` : call = ?
[A] Yes

----------
# System: A549
# assay name: NCI tumour cell line growth inhibition, 48 h
Calls of active or inactive are those of the source. Rule as the data show it: active = GI50 up to about 1.1 µM and inactive = higher. Starred links: 1 amine or outer side, 2 acyl side, 3 side chain; linkers in the order of their positions; H or OH if unused. Positions of bridges follow the written chain, without caps; N, C: chain ends. Non-standard residues stand in square brackets, D forms with d. Residues, ends and D or L forms follow the SMILES beside them. Chains are numbered I, II in the order given. Actinocin(9to1) = Cc1c2oc3c(C)ccc(C(=O)[*:1])c3nc-2c(C(=O)[*:2])c(N)c1=O; NMeV = CN[CH](C(=O)O)C(C)C; Sar = CNCC(=O)O
A correct response names exactly one class from active, inactive

Here's what some known entries look like.
>>> class_assignment("C=C1C(=O)O[C@@]23C1CC[C@@H](C)C2CC[C@@]1(C)OC31 (stereo partly drawn)")
"inactive"
>>> class_assignment("CCOC(=O)C(C)(C)Oc1ccc2c(-c3ccc(Cl)cc3)cc(=O)oc2c1")
"inactive"
>>> class_assignment("O=c1[nH]c(=S)[nH]n1C(=S)n1[nH]c(=S)[nH]c1=O")
"inactive"
>>> class_assignment("C=C1C[C@H](O)[C@H]2C(C[Se]c3ccccc3)C(=O)O[C@@H]2[C@H]2[C@H](C)C(O)C[C@@H]12 (stereo partly drawn)")
"inactive"
>>> class_assignment("COC1=C(N)C(=O)c2nc(C)ccc2C1=O")
"inactive"

[Q] Entry `Cc1ccc(-c2cs/c(=N\c3ccccc3)n2NC(=O)c2ccncc2)cc1` : call = ?
[A] inactive

[Q] Entry `O=C(OCc1ccccc1)c1ccccc1-c1c2ccc(=O)cc-2oc2cc(OCc3ccccc3)ccc12` : call = ?
[A] inactive

[Q] Entry `COc1cc2c(NCCCCCCO[N+](=O)[O-])ncnc2c(OC)c1OC` : call = ?
[A] inactive

[Q] Entry `CCc1nc2cc3cccnc3c(Cl)c2[nH]c1=O` : call = ?
[A] inactive

[Q] Entry Cc1c2oc3c(C)ccc(C(=O)NC4C(=O)NC(Cc5ccc(O)cc5)C(=O)N5CCCC5C(=O)N(C)CC(=O)N(C)C(C(C)C)C(=O)OC4C)c3nc-2c(C(=O)NC2C(=O)NC(Cc3ccc(O)cc3)C(=O)N3CCCC3C(=O)N(C)CC(=O)N(C)C(C(C)C)C(=O)OC2C)c(N)c1=O (stereo not drawn) (I: TYP[Sar][NMeV] / II: TYP[Sar][NMeV]; ester I:1-I:C, II:1-II:C; linker I:N-II:N via Actinocin(9to1); configuration not given here) : call = ?
[A] active

[Q] Entry `O=C(CCC(=O)Nc1cccc(Cl)c1)CC(=O)c1ccc(F)cc1` : call = ?
[A] inactive

----------
Measured GI50, listed per entry.
# Test system: Hs-578T
# assay name: NCI tumour cell line growth inhibition, 48 h
Active and inactive are the calls of the source. No stated cut-off is given here; in the data, active = GI50 up to about 1.1 µM and inactive = higher.

Notebook: `COC(=O)[C@@H]1C[C@]2(Br)c3ccccc3N(S(=O)(=O)c3ccccc3)[C@@H]2N1C(=O)OC` , GI50 read as 83.9 µM (inactive)

Notebook: `COc1ccc2ccccc2c1/C=C/C(=O)c1ccccc1` , GI50 read as 2.92 µM (inactive)

Notebook: `CN(C)Cc1cc(C(=O)/C=C/c2ccc(Cl)cc2Cl)cc(CN(C)C)c1O` , GI50 read as 3.82 µM (inactive)

----------
# Test system: OVCAR-4
# assay name: NCI tumour cell line growth inhibition, 48 h
The source made the active and inactive calls. No stated cut-off is given here; in the data, active = GI50 up to about 1.1 µM and inactive = higher. Non-standard residues stand in square brackets, D forms with d. Residues, ends and D or L forms follow the SMILES beside them. *: point of attachment. Ac5c = NC1(C(=O)O)CCCC1; Cbz = O=C(OCc1ccccc1)*; Boc = CC(C)(C)OC(=O)*; tBu = CC(C)(C)*
A correct response names exactly one class from true (active), false (inactive)

Here's what some known entries look like.
>>> class_assignment("CC1(C)OCC2OC3([C@@H]4OC(C)(C)O[C@H]4CO)OC(C)(C)OC3C2O1 (some centres undefined)")
"false"
>>> class_assignment("CCOC(=O)C(C(=O)OCC)P(=S)(S)c1ccccc1 (centres undefined)")
"false"
>>> class_assignment("Oc1cc(Cl)cc2cccnc12")
"true"
>>> class_assignment("O=C1CC2(CCN(CC3COc4ccccc4O3)CC2)C(=O)N1N1CCCCCC1 (centres undefined)")
"false"
>>> class_assignment("Clc1c(C(Cl)(Cl)Cl)nsc1N1CCCCC1")
"false"

[Q] Entry `CC(C)c1ccc(Cc2ccc(C(C)C)c(NC(=O)C(=O)Cc3cnc4ccccc4n3)c2C(C)C)c(C(C)C)c1NC(=O)C(=O)Cc1cnc2ccccc2n1` : call = ?
[A] false

[Q] Entry `COc1ccc2cc(C(=O)NCCCNC(=O)c3ccc4c(OC)c(OC)ccc4c3)ccc2c1OC` : call = ?
[A] false

[Q] Entry COC(=O)C1(NC(=O)C(Cc2ccccc2)NC(=O)C(NC(=O)C(CCCCNC(=O)OC(C)(C)C)NC(=O)C(Cc2c[nH]c3ccccc23)NC(=O)C(Cc2ccccc2)NC(=O)OCc2ccccc2)C(C)OC(C)(C)C)CCCC1 (centres undefined) (Cbz-FWK(Boc)T(tBu)F[Ac5c]-OMe; configuration not given here) : call = ?
[A] false

----------
# Tested on: SK-OV-3
# assay name: NCI tumour cell line growth inhibition, 48 h
Calls of active or inactive are those of the source. Cut-off read from the data, not from the text of the source: active = GI50 up to about 1.1 µM and inactive = higher.
Measured GI50, listed per entry.

>>> observed_result("N#C/C(=C\\c1cc(F)cc(F)c1)c1ccccn1")
"61.8 µM (inactive)"
>>> observed_result("COc1cc2c(cc1OCCCC(=O)Nc1cc(C(=O)Nc3cc(C(=O)Nc4cc(C(=O)NCCCN(C)C)n(C)n4)n(C)c3)n(C)c1)N=CC1CCCN1C2=O (stereo not given)")
"40.6 µM (inactive)"
>>> observed_result("Cc1ccc(C2(C)CC/C(=N/N=C3/CCC(C)(c4ccc(C)c(C)c4)c4cc(C)c(C)cc43)c3cc(C)c(C)cc32)cc1C (stereo not given)")
"> 100 µM (inactive)"
>>> observed_result("Cc1nc2ccccc2c(=O)n1/N=C/c1ccc(N(C)C)cc1")
"83.6 µM (inactive)"
>>> observed_result("Cc1c(-c2ccccc2)[nH]c2cc(Cl)ccc2c1=O")
"39.4 µM (inactive)"
>>> observed_result("CCSC1=N/C(=C/c2ccccc2O)C(=O)N1")
"31.7 µM (inactive)"
>>> observed_result("COc1ccc2c(c1)CCCN1CCc3ccccc3C21 (stereo not given)")
"52.2 µM (inactive)"
>>> observed_result("O=C(OCc1ccccc1)N1CCCc2c(n(S(=O)(=O)c3ccccc3)c3ccccc23)C1")
"> 100 µM (inactive)"
>>> observed_result("COc1c(C(=O)/C(=N/Nc2cccc(Cl)c2)C(C)=O)c(O)c(OC)c2occc12")
"> 100 µM (inactive)"

// moving on: another record for GI50
Notebook: `CC1=C(NC(=O)C(=O)NNC(=O)c2ccncc2)C(=O)c2ccccc2C1=O` , GI50 read as 28.1 µM (inactive)
